Reported SPOT intensity values for a set of binders
ASSAYED SYSTEM: Myo3, P36006
EXPERIMENT: SPOT array
CONDITION: median of control spots 468
Lab note: record the figure alone, no unit after it.

Reference set, count: 3
>  <BINDER>
SAPDIPPRSPNRNAH

>  <TEST READOUT>
SPOT intensity

>  <VALUE OBSERVED>
0

$$$$
>  <BINDER>
VTHRLRISIPGITGR

>  <TEST READOUT>
SPOT intensity

>  <VALUE OBSERVED>
13

$$$$
>  <BINDER>
VRVKKRPLIRPLNSS

>  <TEST READOUT>
SPOT intensity

>  <VALUE OBSERVED>
8

$$$$

[in] Which value of SPOT intensity has been reported for `WRPRIVPILPYITRL` in the records?
[out] 0

[in] Which value of SPOT intensity has been reported for `SSTPTTPERPKRKSG` in the records?
[out] 0

[in] Which value of SPOT intensity has been reported for `TKRKRPARLIFYDSK` in the records?
[out] 7

[in] Which value of SPOT intensity has been reported for `APKREAPKPPANTSP` in the records?
[out] 277

[in] Which value of SPOT intensity has been reported for `NSVPIMPTLPPRPYI` in the records?
[out] 26
